Reference for the values: paper PMC6278385

test: PK in rats after i.v. C118P; format: in vivo, SD rats; conditions: both sexes, Sprague-Dawley, rat, iv; rats, plasma, i.v. C118P 10 mg/kg, n = 6
ASSAY READOUT: AUC(0-inf) (ng·h/mL)
Give the value, in units of ng·h/mL, as a plain number.

Entry COc1cc(OC)cc(-c2nc[nH]c2-c2ccc(OC)c(O)c2)c1 [C118] has what AUC(0-inf)?
1600

====

test: PK in tumor-bearing nude mice after i.v. C118P; type: in vivo, nude mice (BALB/cA) implanted with NCI-H460 tumor; conditions: BALB/cA nude, mouse, in vivo, iv, 75 mg/kg, nude mice, plasma, i.v. C118P 75 mg/kg, n = 4
ASSAY READOUT: half-life (h)
Provide the reading as a plain figure in h.

Query (compound): COc1cc(OC)cc(-c2nc[nH]c2-c2ccc(OC)c(OP(=O)([O-])[O-])c2)c1.[Na+].[Na+] [C118P] ; field requested: half-life
1.96

====

Assay: Tissue distribution in rats
Assay type: in vivo
Details: both sexes, Sprague-Dawley (SD), rat, lung, iv, 10 min after i.v. 20 mg/kg of C118P, read-out: tissue concentration in lung
Description: Eighteen rats (weight 220–260 g) with half males and half females were randomly assigned to there groups to carry out a tissue distribution study and fasted overnight. […] A volume of 50 μL of homogenate or soak solution was prepared by protein precipitation and determined by the method described above. […]
ASSAY READOUT: concentration at 10 min (ng/g)
Write it as a number; the unit ng/g goes unstated.

Need concentration at 10 min, item `COc1cc(OC)cc(-c2nc[nH]c2-c2ccc(OC)c(O)c2)c1`
12900

====

test: Metabolic stability in liver microsomes; assay type: in vitro ADME, dog; conditions: dog liver microsomes, 1.0 mg protein/mL, C118 disappearance
ASSAY READOUT: half-life (h)
Lab book: enter the figure in h, no units written.

Record request: half-life value, item `COc1cc(OC)cc(-c2nc[nH]c2-c2ccc(OC)c(O)c2)c1`
1.17

====

assay: PK in rats after i.v. C118P; type: in vivo, SD rats; conditions: both sexes, Sprague-Dawley, rat, iv; rats, plasma, i.v. C118P 10 mg/kg, n = 6
ASSAY READOUT: half-life (min)
Report the figure in min without appending any unit label.

Please give the measured half-life for this compound: `COc1cc(OC)cc(-c2nc[nH]c2-c2ccc(OC)c(O)c2)c1`
33

====

assay: PK in dogs after i.v. C118P; format: in vivo, beagle dogs; details: both sexes, beagle, dog, in vivo, iv; dogs, plasma, i.v. C118P 1 mg/kg, n = 6
ASSAY READOUT: half-life

Which half-life is reported for this molecule? COc1cc(OC)cc(-c2nc[nH]c2-c2ccc(OC)c(OP(=O)([O-])[O-])c2)c1.[Na+].[Na+] [C118P]
13.2 min

====

assay: Metabolic stability in liver microsomes; format: in vitro ADME, mice; settings: mouse; mice liver microsomes, 1.0 mg protein/mL, C118 disappearance
ASSAY READOUT: half-life (min)
Report as a plain number; the unit min is understood.

Sample `COc1cc(OC)cc(-c2nc[nH]c2-c2ccc(OC)c(O)c2)c1` — what was its half-life?
15.5

====

test: PK in rats after i.v. C118P; assay type: in vivo, SD rats; settings: both sexes, SD, rat, iv; rats, plasma, i.v. C118P 20 mg/kg, n = 6
ASSAY READOUT: AUC(0-inf) (ng·h/mL)
API: value field is a number in ng·h/mL; no unit string.

Return reported AUC(0-inf); argument: `COc1cc(OC)cc(-c2nc[nH]c2-c2ccc(OC)c(O)c2)c1`
3750

====

assay: Plasma protein binding by ultrafiltration; assay type: in vitro ADME, beagle dogs; conditions: beagle; dog plasma, C118P 4000 ng/mL; read-out: fu (fraction unbound);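 also: fu expressed in percent not as a fraction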
ASSAY READOUT: fraction unbound at 1 h, 4000 ng/mL
Give the figure by itself; no unit, no explanation.

Request the reported fraction unbound at 1 h, 4000 ng/mL associated with COc1cc(OC)cc(-c2nc[nH]c2-c2ccc(OC)c(OP(=O)([O-])[O-])c2)c1.[Na+].[Na+] [C118P]
0.021

====

test: PK in dogs after i.v. C118P; format: in vivo, beagle dogs; conditions: both sexes, beagle, plasma, iv; dog, in vivo, compared with extrapolated CLH; read-out: Observed CL
ASSAY READOUT: clearance (mL/min/kg)
The answer is to be given in mL/min/kg; state only the numeric part.

Data request, read-out clearance, for COc1cc(OC)cc(-c2nc[nH]c2-c2ccc(OC)c(O)c2)c1 [C118]
54

====

experiment: Plasma protein binding by ultrafiltration; format: in vitro ADME, Sprague-Dawley rats; details: Sprague-Dawley, pooled plasma; rat plasma, C118 20,000 ng/mL; read-out: fu (fraction unbound);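 also: fu expressed in percent not as a fraction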
ASSAY READOUT: fraction unbound at 1 h, 20000 ng/mL
The answer should be written as a number, with no unit following it.

Quick check: fraction unbound at 1 h, 20000 ng/mL of `COc1cc(OC)cc(-c2nc[nH]c2-c2ccc(OC)c(O)c2)c1` ?
0.055

====

assay: PK in rats after i.v. C118P; assay type: in vivo, SD rats; conditions: both sexes, SD, rat, in vivo; rats, plasma, i.v. C118P 5 mg/kg, n = 6; read-out: C2min (C30s for Rat)
ASSAY READOUT: concentration at 30 s (µg/mL)
Field: numeric (µg/mL). Do not append units.

Look at this compound and give its reported concentration at 30 s. COc1cc(OC)cc(-c2nc[nH]c2-c2ccc(OC)c(OP(=O)([O-])[O-])c2)c1.[Na+].[Na+] [C118P]
75.6

====

assay: PK in dogs after i.v. C118P; assay type: in vivo, beagle dogs; details: both sexes, beagle, dog, iv; dogs, plasma, i.v. C118P 1 mg/kg, n = 6
ASSAY READOUT: half-life (min)
Reply with just the number (in min).

Given the entry `COc1cc(OC)cc(-c2nc[nH]c2-c2ccc(OC)c(O)c2)c1` , report its measured half-life.
29.4

====

test: PK in tumor-bearing nude mice after i.v. C118P; type: in vivo, nude mice (BALB/cA) implanted with NCI-H460 tumor; conditions: BALB/cA nude, mouse, iv; nude mice, plasma, i.v. C118P 75 mg/kg, n = 4
ASSAY READOUT: half-life (min)
Could you give me the number in min? Just the number is fine.

Look up half-life: COc1cc(OC)cc(-c2nc[nH]c2-c2ccc(OC)c(O)c2)c1 [C118]
58.2

====

assay: Whole blood/plasma ratio; assay type: in vitro ADME; conditions: whole blood and plasma; in rat; incubation 30 min
ASSAY READOUT: blood plasma ratio at 30 min
The response must contain the number and no unit.

Looking for the measured blood plasma ratio at 30 min of `COc1cc(OC)cc(-c2nc[nH]c2-c2ccc(OC)c(O)c2)c1` , can you help?
1.05

====

experiment: PK in dogs after i.v. C118P; format: in vivo, beagle dogs; settings: both sexes, beagle, dog, iv; dogs, plasma, i.v. C118P 6 mg/kg, n = 6
ASSAY READOUT: half-life

Any idea what its half-life is? The molecule is COc1cc(OC)cc(-c2nc[nH]c2-c2ccc(OC)c(O)c2)c1 [C118]
50.4 min

====

experiment: PK in dogs after i.v. C118P; assay type: in vivo, beagle dogs; details: both sexes, beagle, dog, iv; dogs, plasma, i.v. C118P 6 mg/kg, n = 6
ASSAY READOUT: AUC(0-inf) (ng·h/mL)
Numeric only. Scale: ng·h/mL

Entry `COc1cc(OC)cc(-c2nc[nH]c2-c2ccc(OC)c(O)c2)c1` : reported AUC(0-inf) = ?
1830

====

Experiment: PK in rats after i.v. C118P
Format: in vivo, SD rats
Details: both sexes, Sprague-Dawley, rat, intravenous; rats, plasma, i.v. C118P 10 mg/kg, n = 6; read-out: C2min (C30s for Rat)
Protocol: The SD rats were supplied by the medical animal experiment center of Chinese People’s Liberation Army Nanjing military region. Twenty-four rats (210–300 g) with half males and half females were divided randomly into four groups. C118P was dissolved in saline to achieve different concentrations for intravenous administration. […] Plasma was prepared by centrifugation at 8000 rpm for 5 min, and the plasma samples were then prepared and determined by the method described above. […]
ASSAY READOUT: concentration at 30 s (ng/mL)
Report as a plain number; the unit ng/mL is understood.

Entry under review: COc1cc(OC)cc(-c2nc[nH]c2-c2ccc(OC)c(O)c2)c1 [C118] . Reported concentration at 30 s?
3720

====

experiment: Tissue distribution in rats; assay type: in vivo; conditions: both sexes, Sprague-Dawley (SD), rat, heart, iv, 10 min after i.v. 20 mg/kg of C118P, read-out: tissue concentration in heart
ASSAY READOUT: concentration at 10 min
Provide a numeric answer, followed by its unit.

Bench note: what concentration at 10 min did `COc1cc(OC)cc(-c2nc[nH]c2-c2ccc(OC)c(O)c2)c1` show?
6340 ng/g
